From: patent US12473296B2

IC50 reference
target: EIF2AK3 (PERK) catalytic domain (amino acids 536-1116) (Homo sapiens (Human)); experiment: PERK in vitro activity assay (isolated), TR-FRET kinase assay; details: isolated PERK enzyme, 1.5 μM ATP, GFP-eIF2a substrate; read-out: Biochemical IC50

Check out these entries, answers already filled in.
{"Compound": "CC(C)NC(=O)c1cc(-c2ccc(NC(=O)C(O)c3cc(F)cc(F)c3)cc2)cnc1N (stereo not shown) [Example 80]", "Result value": "1 to 25 nM"}
{"Compound": "CNC(=O)c1nc(-c2ccc(NC(=O)C(O)c3cc(F)cc(F)c3)cc2C)cnc1N (stereo not shown)", "Result value": "1 to 25 nM"}

Can you share its IC50? I mean this compound: Cc1cc(NC(=O)C(O)c2cccc(Cl)c2)ccc1-c1cnc(N)c(C(=O)NC(C)C)c1 (stereo not shown) [Example 69]
1 to 25 nM

// repeat for Cc1cc(NC(=O)C(O)c2cc(F)cc(F)c2)ccc1-c1cnc(N)c(C(=O)NC(C)(C)C)c1 (single isomer, unassigned) [Example 16] and report
26 to 50 nM

// repeat for Cc1cc(NC(=O)CC2CCCC2)ccc1-c1cnc(N)c(C(=O)NC(C)C)c1 and report
> 5000 nM

// repeat for Cc1cc(NC(=O)C(O)c2cc(F)cc(F)c2)ccc1-c1cnc(N)c(C(=O)NC2CC(O)C2)c1 (stereo not shown) [Example 27] and report
51 to 100 nM

// repeat for Cc1nc(C(O)C(=O)Nc2ccc(-c3cnc(N)c(C(=O)NC(C)C)c3)c(C)c2)cs1 (stereo not shown) [Example 79] and report
1000 to 2000 nM

// repeat for Cc1cc(NC(=O)C(O)c2cccc3cnn(C)c23)ccc1-c1cnc(N)c(C(=O)NC(C)C)c1 (stereo not shown) [Example 76] and report
251 to 500 nM

// repeat for Cc1cc(NC(=O)Cc2cccc3ncccc23)ccc1-c1cnc(N)c(C(=O)NC(C)C)c1 and report
1000 to 2000 nM

// repeat for COc1cccc(CC(=O)Nc2ccc(-c3cnc(N)c(C(=O)NC(C)C)c3)c(C)c2)c1 and report
51 to 100 nM

// repeat for Cc1cc(NC(=O)Cc2ccccc2)ccc1-c1cnc(N)c(C(=O)NC(C)C)c1 and report
51 to 100 nM

// repeat for Nc1ncc(-c2ccc(NC(=O)C(O)c3cc(F)cc(F)c3)cc2Cl)cc1C(=O)NC1CC1 (stereo not shown) [Example 85] and report
1 to 25 nM

// repeat for Cc1cc(NC(=O)C(O)c2cccc(Cl)c2)ccc1-c1cnc(N)c(C(=O)NC(C)C)c1 (stereo not shown) [Example 68] and report
101 to 250 nM

---

biological target: EIF2AK3 (PERK) catalytic domain (amino acids 536-1116) (Homo sapiens (Human), UniProt Q9NZJ5); experiment: PERK in vitro activity assay (isolated), TR-FRET kinase assay; settings: isolated PERK enzyme, 1.5 μM ATP, GFP-eIF2a substrate; read-out: Biochemical IC50
Sequence (Q9NZJ5 536-1116): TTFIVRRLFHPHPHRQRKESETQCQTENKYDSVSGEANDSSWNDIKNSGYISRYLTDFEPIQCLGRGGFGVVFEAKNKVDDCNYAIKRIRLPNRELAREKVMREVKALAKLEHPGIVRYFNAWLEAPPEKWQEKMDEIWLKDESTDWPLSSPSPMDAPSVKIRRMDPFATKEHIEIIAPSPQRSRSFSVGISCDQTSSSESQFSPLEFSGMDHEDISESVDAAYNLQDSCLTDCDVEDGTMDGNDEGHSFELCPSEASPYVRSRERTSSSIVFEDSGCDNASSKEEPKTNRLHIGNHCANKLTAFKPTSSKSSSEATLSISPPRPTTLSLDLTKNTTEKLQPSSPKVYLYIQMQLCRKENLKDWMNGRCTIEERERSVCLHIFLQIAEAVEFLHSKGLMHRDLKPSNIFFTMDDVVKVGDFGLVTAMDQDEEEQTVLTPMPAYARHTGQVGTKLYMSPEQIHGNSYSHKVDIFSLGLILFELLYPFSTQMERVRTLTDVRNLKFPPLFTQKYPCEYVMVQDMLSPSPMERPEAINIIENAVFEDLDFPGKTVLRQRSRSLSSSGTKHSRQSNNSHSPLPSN
IC50 reference

Can you share its IC50? I mean this molecule: CCc1cc(NC(=O)C(O)c2cc(F)cc(F)c2)ccc1-c1cnc(N)c(C(=O)NC2CC2)n1 (stereo not shown) [Example 156]
1 to 25 nM

// repeat for Cc1cc(NC(=O)C(O)c2cc(F)cc(F)c2)ccc1-c1cnc(N)c(C(=O)NC2CC2)c1 (stereo not shown) and report
26 to 50 nM

// repeat for CC(C)NC(=O)c1cc(-c2ccc(NC(=O)C(O)c3cc(F)cc(F)c3)c(F)c2Cl)cnc1N (stereo not shown) [Example 124] and report
26 to 50 nM

// repeat for CCc1cc(NC(=O)C(O)c2cc(F)cc(F)c2)ccc1-c1cnc(N)c(C(=O)NC(C)C)n1 (stereo not shown) [Example 151] and report
1 to 25 nM

// repeat for Cc1cc(NC(=O)Cc2cccc(C(F)(F)F)c2)ccc1-c1cnc(N)c(C(=O)NC(C)C)c1 and report
51 to 100 nM

---

target: EIF2AK3 (PERK) catalytic domain (amino acids 536-1116) (Homo sapiens (Human)); assay: PERK in vitro activity assay (isolated), TR-FRET kinase assay; conditions: isolated PERK enzyme, 1.5 μM ATP, GFP-eIF2a substrate; read-out: Biochemical IC50
IC50 reference

{"Molecule": "Cc1cc(NC(=O)C(O)c2cc(F)cc(F)c2)ccc1-c1cnc(N)c(C(=O)NCCN(C)C)n1 (stereo not shown) [Example 146]", "Result value": "26 to 50 nM"}
{"Molecule": "CCc1cc(NC(=O)C(O)c2cccc(C)c2)ccc1-c1cnc(N)c(C(=O)NC(C)C)n1 (stereo not shown) [Example 160]", "Result value": "1 to 25 nM"}
{"Molecule": "Cc1cc(NC(=O)Cc2ccc(F)cc2)ccc1-c1cnc(N)c(C(=O)NC(C)C)c1 [Example 191]", "Result value": "51 to 100 nM"}

Could you now consider this next molecule?
Can you share its IC50? I mean this molecule: Cc1cc(NC(=O)Cc2ccc3ccccc3c2)ccc1-c1cnc(N)c(C(=O)NC(C)C)c1 [Example 208]
26 to 50 nM

---

target: PERK (Homo sapiens (Human)); assay: PERK cellular assay (TR-FRET, HEK293-EGFP-eIF2α cells, tunicamycin-induced ER stress); assay type: cell-based; conditions: tunicamycin 2 hours, read-out: Cellular IC50 (μM) (EIF2a)
Sequence (Q9NZJ5 30-1116): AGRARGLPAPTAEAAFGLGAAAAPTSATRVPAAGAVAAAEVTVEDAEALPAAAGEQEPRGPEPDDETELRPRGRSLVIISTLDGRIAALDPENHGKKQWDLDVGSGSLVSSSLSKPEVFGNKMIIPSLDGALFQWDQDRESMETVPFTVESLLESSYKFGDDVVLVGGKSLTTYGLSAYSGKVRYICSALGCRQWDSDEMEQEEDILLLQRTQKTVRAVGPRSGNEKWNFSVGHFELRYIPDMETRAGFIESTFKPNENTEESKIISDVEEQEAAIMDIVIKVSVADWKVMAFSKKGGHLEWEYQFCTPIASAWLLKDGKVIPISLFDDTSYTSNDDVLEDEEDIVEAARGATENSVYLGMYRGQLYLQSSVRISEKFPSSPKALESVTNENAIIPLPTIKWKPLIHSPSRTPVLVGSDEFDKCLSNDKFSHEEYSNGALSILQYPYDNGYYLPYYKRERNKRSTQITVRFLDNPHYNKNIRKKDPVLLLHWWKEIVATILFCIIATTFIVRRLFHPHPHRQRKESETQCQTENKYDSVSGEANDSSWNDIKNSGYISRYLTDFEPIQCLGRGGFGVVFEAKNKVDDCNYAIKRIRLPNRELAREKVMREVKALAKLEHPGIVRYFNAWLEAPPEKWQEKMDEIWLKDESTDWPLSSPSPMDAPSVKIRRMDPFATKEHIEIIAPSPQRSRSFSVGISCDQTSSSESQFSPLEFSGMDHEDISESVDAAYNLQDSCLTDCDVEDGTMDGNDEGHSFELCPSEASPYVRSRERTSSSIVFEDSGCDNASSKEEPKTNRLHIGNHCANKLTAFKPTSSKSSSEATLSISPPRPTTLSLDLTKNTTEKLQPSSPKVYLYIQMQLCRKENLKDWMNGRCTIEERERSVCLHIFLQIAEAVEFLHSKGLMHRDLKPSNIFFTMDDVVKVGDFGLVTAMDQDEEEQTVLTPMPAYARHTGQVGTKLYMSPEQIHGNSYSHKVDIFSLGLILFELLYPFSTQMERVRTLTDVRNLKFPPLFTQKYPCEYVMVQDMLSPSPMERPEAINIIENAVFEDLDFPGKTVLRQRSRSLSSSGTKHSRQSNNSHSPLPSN
Measurement name: IC50

{"Molecule": "CCc1cc(NC(=O)C(O)c2cc(F)cc(F)c2)ccc1-c1cnc(N)c(C(=O)NCC(F)(F)F)n1 (single isomer, unassigned) [Example 155]", "IC50": "0.101 to 0.25 µM"}
{"Molecule": "COCCNC(=O)c1cc(-c2ccc(NC(=O)C(O)c3cc(F)cc(F)c3)cc2C)cnc1N (stereo not drawn) [Example 55]", "IC50": "1 to 2 µM"}
{"Molecule": "CCNC(=O)c1nc(-c2ccc(NC(=O)C(O)c3cc(F)cc(F)c3)cc2CC)cnc1N (stereo not drawn)", "IC50": "0.026 to 0.05 µM"}
{"Molecule": "CCNC(=O)c1cc(-c2ccc(NC(=O)C(O)c3cc(F)cc(F)c3)c(F)c2C)cnc1N (stereo not drawn) [Example 118]", "IC50": "0.026 to 0.05 µM"}
{"Molecule": "Cc1cc(NC(=O)C(O)c2cc(F)cc(F)c2)ccc1-c1cnc(N)c(C(=O)NC2CCC2)n1 (stereo not drawn) [Example 141]", "IC50": "0.101 to 0.25 µM"}

Can you share its IC50? I mean this molecule: Cc1cc(NC(=O)c2ccccc2)ccc1-c1cnc(N)c(C(=O)NC(C)C)c1
0.501 to 1 µM

// repeat for Cc1cc(NC(=O)C(O)c2cc(F)cc(F)c2)ccc1-c1cnc(N)c(C(=O)NC2CC2)c1 (stereo not drawn) and report
0.251 to 0.5 µM

// repeat for CC(C)NC(=O)c1nc(-c2ccc(NC(=O)C(O)c3cc(F)cc(F)c3)cc2Cl)cnc1N (stereo not drawn) [Example 163] and report
0.051 to 0.1 µM

// repeat for CCc1cc(NC(=O)C(O)c2cc(F)cc(F)c2)ccc1-c1cnc(N)c(C(=O)NCC(F)(F)F)c1 (stereo not drawn) [Example 101] and report
0.051 to 0.1 µM

// repeat for Cc1ccc(-c2ccc(NC(=O)C(O)c3cc(F)cc(F)c3)cc2C)cn1 (stereo not drawn) [Example 181] and report
> 5 µM

// repeat for Cc1cc(NC(=O)C(O)c2cc(F)cc(F)c2)ccc1-c1cnc(N)c(C(=O)NC(C)C)c1 (stereo not drawn) [Example 40] and report
0.026 to 0.05 µM

// repeat for CC(=O)N1CC(NC(=O)c2cc(-c3ccc(NC(=O)C(O)c4cc(F)cc(F)c4)cc3C)cnc2N)C1 (stereo not drawn) [Example 30] and report
0.501 to 1 µM

// repeat for CCc1cc(NC(=O)C(O)c2cc(F)cc(F)c2)ccc1-c1cnc(N)c(C(=O)NC2CC2)n1 (stereo not drawn) [Example 156] and report
0.001 to 0.025 µM

// repeat for CCc1cc(NC(=O)C(O)c2cc(F)cc(F)c2)ccc1-c1cnc(N)c(C(=O)NCC(F)(F)F)n1 (single isomer, unassigned) [Example 154] and report
0.001 to 0.025 µM

// repeat for CC(C)NC(=O)c1cc(-c2ccc(NC(=O)C(O)c3cc(F)cc(F)c3)cc2OC(F)(F)F)cnc1N (stereo not drawn) [Example 114] and report
> 5 µM

// repeat for CCc1ccc(CC(=O)Nc2ccc(-c3cnc(N)c(C(=O)NC(C)C)c3)c(C)c2)cc1 and report
2 to 3 µM

// repeat for Cc1cc(NC(=O)Cc2cccc(Cl)c2)ccc1-c1cnc(N)c(C(=O)NC(C)C)c1 and report
0.101 to 0.25 µM

// repeat for Cc1cc(NC(=O)C(O)c2cc(F)cc(F)c2)ccc1-c1cnc(N)c(C(=O)NC2CC2)n1 (stereo not drawn) [Example 139] and report
0.251 to 0.5 µM
